tested on: C. tropicalis strain H5343; assay: Toxicity tests of substrates (growth by absorbance at 600 nm, streak plates); assay type: cell-based; conditions: substrate concentration 0.25%, 48 h, 30° C., dilution in YPD 1:100
Can you tell me ABS 600.0 nm for the items I'm about to list?
No unit in the answer, please; the number alone is enough.

Given the entry `CCCCCCCCC(=O)CCCCCCCC` , what ABS 600.0 nm was observed with C. tropicalis strain H5343?
0.120

Given the entry CCCCCCCCCCCCCCCCOC(C)=O [Hexadecyl acetate] , what ABS 600.0 nm was observed with C. tropicalis strain H5343?
0.110

Given the entry `C=CCCCCCCCCCCCC` , what ABS 600.0 nm was observed with C. tropicalis strain H5343?
0.115

Given the entry C=CCCCCCCCCCC [Dodecene] , what ABS 600.0 nm was observed with C. tropicalis strain H5343?
0.053

Given the entry `CCCCCCCC/C=C\CCCCCCCCO` , what ABS 600.0 nm was observed with C. tropicalis strain H5343?
0.097

Given the entry CCCCCCCCC(CO)CCCCCC (stereo not drawn) , what ABS 600.0 nm was observed with C. tropicalis strain H5343?
0.145

Given the entry C/C=C/CCCCCC [trans-2-nonene] , what ABS 600.0 nm was observed with C. tropicalis strain H5343?
0.000

Given the entry CCCCC(CC)C(=O)O (stereo not drawn) , what ABS 600.0 nm was observed with C. tropicalis strain H5343?
0.000

Given the entry C=CCCCCCCCCCC [C12 a-Olefin] , what ABS 600.0 nm was observed with C. tropicalis strain H5343?
0.080

Given the entry `CCCCCC#CCCCCC` , what ABS 600.0 nm was observed with C. tropicalis strain H5343?
0.073

Given the entry C=C(C)[C@H]1CC=C(C)CC1 [R(+) limonene] , what ABS 600.0 nm was observed with C. tropicalis strain H5343?
0.000

Given the entry CCCCCC/C=C/CCCCCC [trans-7-tetradecene] , what ABS 600.0 nm was observed with C. tropicalis strain H5343?
0.103

Given the entry CCCCCCCCCCCCCCCCOC(=O)CCCCCCCC [Hexadecyl pelargonate] , what ABS 600.0 nm was observed with C. tropicalis strain H5343?
0.103

Given the entry `CCCCCCCCCCCCN` , what ABS 600.0 nm was observed with C. tropicalis strain H5343?
0.000

Given the entry C=C(C)[C@@H]1CC=C(C)CC1 [S(−) limonene] , what ABS 600.0 nm was observed with C. tropicalis strain H5343?
0.000

Given the entry `C=C[C@](C)(O)CC[C@@H]1[C@@]2(C)CCCC(C)(C)[C@@H]2CC[C@@]1(C)O` , what ABS 600.0 nm was observed with C. tropicalis strain H5343?
0.110
